tested on: LL29 cells (αSMA positive cells); experiment: Fibrosis assay: TGF-β1 treated primary human fibroblasts from IPF patients, αSMA staining; type: cell-based; conditions: LL29 cells treated with TGF-β1, 4 days, αSMA staining
Endpoint label: EC50

What the record says about `Cn1cc(-c2ccc3cnc(NC(=O)C(C)(C)F)cc3c2)nn1` : EC50 is > 10 µM

====

test system: Tau phosphorylation at Ser396 (pSer396); test: Tau phosphorylation assay (pSer396) in SH-SY5Y cells; assay type: cell-based, human; settings: overnight (16-18 h) exposure, pSer396 Tau ELISA
Endpoint label: pEC50
Numbers only, as −log10 of the molar value.

The compound Cn1cc(-c2ccc3cnc(NC(=O)C(C)(C)F)cc3c2)nn1 [Compound 312] on Tau phosphorylation at Ser396 (pSer396): pEC50 was 6.12
